- method: LNP size and polydispersity index (PDI) by dynamic light scattering (DLS)
- Format: physicochemical
- testContext: Table 9; LNP 50:10:38.5:1.5 mol %; hEPO mRNA; N:P 6
measuredMetric: PDI
// no unit, no text: just the number

Using the record for CCCCCCCCC(CCCCCC)C(=O)OCCN(CCOC(=O)C(CCCCCC)CCCCCCCC)C(=O)CN(C)CCC.Cl (stereo not drawn) , report its PDI.
0.15

Using the record for CCCCCCCCC(CCCCCC)C(=O)OCCN(CCOC(=O)C(CCCCCC)CCCCCCCC)C(=O)CN(CC)CC.Cl (stereo not drawn) , report its PDI.
0.101

Using the record for CCCCCCCCCCCOC(=O)CCCCCN(CCO)CCCCCCCC(=O)OC(CCCCCCCC)CCCCCCCC [SM-102, reference compound] , report its PDI.
0.098

Using the record for CCCCCCCCC(CCCCCC)C(=O)OCCN(CCOC(=O)C(CCCCCC)CCCCCCCC)C(=O)CN(C)CC.Cl (stereo not drawn) , report its PDI.
0.076

Using the record for CCCCCCCCC(CCCCCC)C(=O)OCCN(CCOC(=O)C(CCCCCC)CCCCCCCC)C(=O)CN1CCOCC1.Cl (stereo not drawn) [Compound 960e] , report its PDI.
0.384

Using the record for `CCCCCCCC(CCCCCCC)C(=O)OCCN(CCOC(=O)C(CCCCCCC)CCCCCCC)C(=O)CN(C)C.Cl` , report its PDI.
0.132

Using the record for CCCCCCCCC(CCCCCC)C(=O)OCCN(CCOC(=O)C(CCCCCC)CCCCCCCC)C(=O)CNCC.Cl (stereo not drawn) , report its PDI.
0.216

Using the record for CCCCCCCCC(CCCCCC)C(=O)OCCN(CCOC(=O)C(CCCCCC)CCCCCCCC)C(=O)CN(C)CCO.Cl (stereo not drawn) [Compound 960g] , report its PDI.
0.254

Using the record for CCCCCCCCC(CCCCCC)C(=O)OCCN(CCOC(=O)C(CCCCCC)CCCCCCCC)C(=O)CNC.Cl (stereo not drawn) , report its PDI.
0.317

Using the record for CCCCCCCCC(CCCCCC)C(=O)OCCN(CCOC(=O)C(CCCCCC)CCCCCCCC)C(=O)CNCCC.Cl (stereo not drawn) , report its PDI.
0.368

Using the record for CCCCCCCCC(CCCCCC)C(=O)OCCN(CCOC(=O)C(CCCCCC)CCCCCCCC)C(=O)CN(CC)CCC.Cl (single isomer, unassigned) [Compound 960b] , report its PDI.
0.099

Using the record for `CCCCCCCCCC(CCCCCCCCC)C(=O)OCCN(CCOC(=O)C(CCCCCCCCC)CCCCCCCCC)C(=O)CN(C)C.Cl` , report its PDI.
0.447

Using the record for CCCCCCCCC(CCCCCC)C(=O)OCCN(CCOC(=O)C(CCCCCC)CCCCCCCC)C(=O)CN1CCCC1.Cl (stereo not drawn) [Compound 960c] , report its PDI.
0.079

Using the record for CCCCCCCCC(CCCCCC)C(=O)OCCN(CCOC(=O)C(CCCCCC)CCCCCCCC)C(=O)CN1CCCCC1.Cl (stereo not drawn) [Compound 960d] , report its PDI.
0.133

Using the record for CCCCCCCCC(CCCCCC)C(=O)OCCN(CCOC(=O)C(CCCCCC)CCCCCCCC)C(=O)CN(CC)CCC.Cl (single isomer, unassigned) [Compound 960a] , report its PDI.
0.125
